experimental-target: UniProt:Q9XUB2
Sequence (Q9XUB2 whole entry): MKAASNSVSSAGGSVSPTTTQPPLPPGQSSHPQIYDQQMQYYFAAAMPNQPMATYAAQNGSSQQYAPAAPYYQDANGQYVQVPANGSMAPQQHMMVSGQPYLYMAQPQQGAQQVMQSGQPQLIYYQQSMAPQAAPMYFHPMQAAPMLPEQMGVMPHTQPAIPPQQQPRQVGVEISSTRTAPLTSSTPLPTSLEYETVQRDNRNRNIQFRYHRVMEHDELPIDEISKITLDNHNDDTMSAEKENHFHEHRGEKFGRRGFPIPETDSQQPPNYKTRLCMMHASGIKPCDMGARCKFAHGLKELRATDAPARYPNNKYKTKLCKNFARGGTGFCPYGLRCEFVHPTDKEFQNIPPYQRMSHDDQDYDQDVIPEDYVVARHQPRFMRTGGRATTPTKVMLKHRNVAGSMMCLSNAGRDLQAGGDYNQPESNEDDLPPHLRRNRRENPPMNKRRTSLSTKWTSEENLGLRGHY
protocol-summary: MEX-5/TCR-2 RNA interaction inhibitors, dose response, biochemical, C. elegans, fluorescence polarization (AID 1960)
The source made the active and inactive calls.
observable: EC50

> print(dat)
                                   molecule       assay.value
1  COCCCn1c(N)c(-c2nc3ccccc3n2C)c2nc3ccccc3nc21  40.6 µM (active)

Report EC50 for every entry below.
1. Cc1ccc(/N=C/c2sc(O)c3ccccc23)c(C)c1
2. O=C1NC(=O)N(CCc2ccc(F)cc2)C(=O)/C1=C/NNC(=O)c1ccccc1
3. Br.N=c1n(CC(=O)c2ccc([N+](=O)[O-])cc2)c2ccccc2n1Cc1ccc(Cl)cc1
4. CCCNC(=O)c1ccc2c(O)c(O)c(-c3ccc(F)cc3)nc2c1
5. COc1ccc(OC)c(C2C(C(=O)c3ccco3)=C(O)C(=O)N2CCN2CCOCC2)c1 (centres undefined)
6. CC(=O)Oc1oc(-c2ccccc2)nc1/C=N/c1ccc(N(C)C)cc1
7. CN1C(=O)C(=Cc2sc(=O)n(-c3ccccc3)c2N2CCCCC2)C(=O)N(C)C1=O

["> 300 µM (inconclusive)", "> 300 µM (not active)", "> 300 µM (not active)", "4.47 µM (inconclusive)", "> 300 µM (not active)", "> 300 µM (not active)", "19.9 µM (inconclusive)"]

Which EC50 reading was recorded for the molecule CCOC(=O)N1CC=C2C(C#N)=C(N)C(C#N)(C#N)[C@H](c3ccsc3)[C@H]2C1 ? 58.7 µM (active)

* * *

experimental-target: Corticotropin-releasing factor receptor 2/Corticotropin-releasing factor-binding protein (Homo sapiens, UniProt P24387+Q13324)
Sequence (Q13324 whole entry): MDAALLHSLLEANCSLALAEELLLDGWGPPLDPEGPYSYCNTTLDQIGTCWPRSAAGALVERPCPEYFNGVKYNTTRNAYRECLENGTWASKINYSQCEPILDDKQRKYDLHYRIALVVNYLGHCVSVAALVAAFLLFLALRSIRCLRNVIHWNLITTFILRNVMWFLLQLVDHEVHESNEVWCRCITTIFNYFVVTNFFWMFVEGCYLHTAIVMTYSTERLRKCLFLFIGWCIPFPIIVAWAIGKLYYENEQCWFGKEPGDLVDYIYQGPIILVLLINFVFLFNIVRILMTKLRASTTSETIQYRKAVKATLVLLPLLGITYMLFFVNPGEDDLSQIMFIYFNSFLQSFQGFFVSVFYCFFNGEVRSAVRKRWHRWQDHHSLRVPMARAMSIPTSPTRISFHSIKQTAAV
Sequence (P24387 whole entry): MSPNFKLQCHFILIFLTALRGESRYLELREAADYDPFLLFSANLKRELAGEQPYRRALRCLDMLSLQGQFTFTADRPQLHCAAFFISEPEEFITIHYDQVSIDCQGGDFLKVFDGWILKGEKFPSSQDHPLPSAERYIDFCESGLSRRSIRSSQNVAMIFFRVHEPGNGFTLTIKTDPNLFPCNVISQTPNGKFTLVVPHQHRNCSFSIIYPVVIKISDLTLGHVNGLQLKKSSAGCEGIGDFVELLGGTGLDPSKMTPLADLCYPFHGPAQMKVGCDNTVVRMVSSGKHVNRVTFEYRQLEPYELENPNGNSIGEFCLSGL
protocol-summary: Dose Response confirmation of uHTS hits for small molecule antagonists of the CRF-binding protein and CRF-R2 receptor complex.
Assay type: functional
condition-label: read-out: IC50_Mean
The source made the active and inactive calls.
observable: IC50

Report IC50 for every entry below.
1. CCOc1ccc(CCNC(=O)C2CCCN(c3ncnc4c3nc3n4CCCCC3)C2)cc1 (centres undefined)
2. COc1ccc(OC2C(=O)N(Cc3ccc(F)cc3)C2c2cc(OC)c(OC)c(OC)c2)cc1 (centres undefined)
3. Cc1nn(-c2cccc([N+](=O)[O-])c2)c(N)c1-c1ccccc1
4. CSc1ccccc1OCc1cc(C(=O)NCc2csc(C(C)C)n2)no1

1. > 47.1 µM (inactive)
2. > 47.1 µM (inactive)
3. > 47.1 µM (inactive)
4. > 47.1 µM (inactive)
